tested on: A549; assay: NCI tumour cell line growth inhibition, 48 h
Activity calls are given as the source filed them. Rule as the data show it: active = GI50 up to about 1.1 µM and inactive = higher.
PARAMETER MEASURED: GI50

// returns GI50 for "CSC1=N/C(=C\c2ccccc2)C(=O)N1CN1CCOCC1" with A549; value = > 100 µM (inactive)

Cc1cc(O)nc(NNC(C#N)c2c(O)ccc3ccccc23)n1 (stereo unspecified) on A549 gives GI50 = 2.9 µM (inactive)

The value of GI50 recorded for "Cc1nc(N)c(N2CCN([N+](=O)[O-])CC2)c(O)n1" when tested on A549 reads > 100 µM (inactive)

A549 assay, compound NC(=O)C(N)CC12CC3CC(CC(C3)C1)C2 (stereo unspecified) , recorded GI50 = 45.6 µM (inactive)

Sample C[C@@H]1C[C@]2(C[C@@H](C)[C@H]3C(C[C@@]4(C)CCC[C@@H]5C6=C[C@H](CCC34C)OC6=CC(=O)OC5(C)C)O2)OC1=O (stereo partly specified) , system: A549. Its GI50 is > 51.5 µM (inactive)

Field GI50 (A549), entry "CC[C@]12C=CCN3CC[C@@]4(c5cc(Br)c(OC)cc5N(C)[C@H]4[C@@](O)(C(=O)N[C@@H](Cc4ccc(O)cc4)C(=O)OC)[C@@H]1O)[C@@H]32" : 25.7 µM (inactive)

Noted GI50 for Cc1ccc(S(=O)(=O)N2CC3OC(C)(C)OC3C2CO)cc1 (stereo unspecified) , tested on A549: > 100 µM (inactive)

Sample "COc1ccc(/C=C/CO)cc1OC" , system: A549. Its GI50 is > 100 µM (inactive)

For COc1cc2c3c(c1OC)-c1ccccc1C(C(OC(C)=O)c1ccccc1)C3N(C)CC2 (stereo unspecified) on A549, measured GI50 was 32.8 µM (inactive)

// GI50 (A549) for Nc1nc2ccc(OCC(O)CN3CCCCC3)cc2[n+]([O-])n1 (stereo unspecified) = > 100 µM (inactive)

Param item: "CCOC(=O)/C(=C/c1ccccc1)N(CC)CC" ; param system: A549; output GI50: > 100 µM (inactive)

For the compound "O=c1nc(N2CCNCC2)oc2cc(Cl)oc(=O)c12" , the measured GI50 on A549 was 7.52 µM (inactive)

Tested on A549: C[C@@H](CCO)OC1OC(COC(=O)C(C)(C)C)C(OC(=O)C(C)(C)C)C(OC(=O)C(C)(C)C)C1OC(=O)C(C)(C)C (stereo partly specified) . Observed GI50: 14.1 µM (inactive)

Reported A549 GI50 for item "O=S1(=O)Cc2ccc3c4c2-c2c(ccc5ccc(c-4c25)CS(=O)(=O)C3)C1" was > 100 µM (inactive)

Item NC(Cc1ccccc1CP(=O)(O)O)C(=O)O (stereo unspecified) was tested on A549; the reported GI50 is > 100 µM (inactive)

Assay A549, sample "[N-]=[N+]=Nc1cccc(-c2nnc(Cl)cc2O)c1" , GI50 read: > 100 µM (inactive)

The recorded GI50 with A549 for "CCOC(=O)N1CCC2(CC1)CC(=O)N(Nc1ccccc1)C2=O" was > 100 µM (inactive)

Result for "CC(=O)c1ccc(Oc2c3ccccc3nc3ccccc23)cc1" , tested on A549, GI50: 9.35 µM (inactive)

Simply: "O=C(CCC(=O)Nc1ccc(Cl)c(Cl)c1)CC(=O)c1ccc(F)cc1" , A549, GI50 = > 100 µM (inactive)

Record "Cc1[nH]n(-c2nc(O)c(C)c(=O)[nH]2)c(=O)c1CCO" / A549, GI50 recorded as > 100 µM (inactive)

"C(=N\N=C1NCCCCN1)/c1ccc2ccccc2c1" on A549 gives GI50 = 50.2 µM (inactive)

Where do these numbers come from? They come from ChEMBL document CHEMBL1201862.
